- ASSAY PROCEDURE: Kinetic study in dogs (oral administration, plasma levodopa)
- CONDITION NOTES: dog, in vivo, po, 3 mg/kg
EXPERIMENTAL ENDPOINT: AUC (area under the blood concentration-time curve of levodopa) (μg^+ hr/mL)

- MOLECULE: "CC1(CC(=O)Oc2ccc(C[C@H](N)C(=O)O)cc2OC(=O)CC2(C)CCCCC2)CCCCC1.Cl [Reference Example 30]"
  UNIT OF MEASURE: "μg^+ hr/mL"
  ASSAY RESULT: 0.36

1. Cl.N[C@@H](Cc1ccc(OC(=O)C2CC2)c(OC(=O)C2CC2)c1)C(=O)O [Reference Example 26]
2. CC1(C(=O)Oc2ccc(C[C@H](N)C(=O)O)cc2OC(=O)C2(C)CC2)CC1.Cl [Reference Example 27]
3. COc1ccccc1C(=O)OCC(C)(C)C(=O)Oc1ccc(C[C@H](N)C(=O)O)cc1OC(=O)C(C)(C)COC(=O)c1ccccc1OC.Cl [Reference Example 16]
Q: // ranking: key=AUC (area under the blood concentration-time curve of levodopa), reverse=True Please respond with the labels ordered as the question requires.
A: 2, 1, 3
